Target Or Test System: α1B adrenoceptor (Rattus norvegicus)
Construct: from tissue; host or cells: rat liver membranes
Sequence (P15823 whole entry): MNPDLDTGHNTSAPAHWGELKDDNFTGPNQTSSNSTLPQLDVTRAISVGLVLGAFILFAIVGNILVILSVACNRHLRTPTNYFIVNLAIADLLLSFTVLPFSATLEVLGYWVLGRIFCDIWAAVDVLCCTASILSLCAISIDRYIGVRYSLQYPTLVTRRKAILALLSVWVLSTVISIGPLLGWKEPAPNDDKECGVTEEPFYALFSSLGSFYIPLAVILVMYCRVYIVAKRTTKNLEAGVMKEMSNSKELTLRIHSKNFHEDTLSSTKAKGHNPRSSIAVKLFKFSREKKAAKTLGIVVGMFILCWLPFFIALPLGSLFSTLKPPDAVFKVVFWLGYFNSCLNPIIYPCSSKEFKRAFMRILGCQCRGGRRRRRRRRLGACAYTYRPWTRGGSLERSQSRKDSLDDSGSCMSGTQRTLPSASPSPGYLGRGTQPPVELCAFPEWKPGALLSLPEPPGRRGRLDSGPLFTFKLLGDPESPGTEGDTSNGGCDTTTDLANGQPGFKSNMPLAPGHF
Assay Summary: Radioligand binding, [3H] prazosin displacement, rat liver membranes
Conditions Used: read-out: Affinity (Ki) α1B (Rat Liver)
pKi: −log10 of the molar value. Where a name gives a salt, the structure may show the parent alone.
Property Name: pKi

Here's what some known entries look like.
[
  {
    "Compound": "O=C1C2CC=CCC2C(=O)N1CCCN1CCN(c2ccccc2-c2ccccc2)CC1 (stereo not shown) [Compound No. 45, hydrochloride]",
    "pKi": 6.92
  },
  {
    "Compound": "CC(C)Oc1ccccc1N1CCN(CCCN2C(=O)C3C(c4ccccc4)C=CC(c4ccccc4)C3C2=O)CC1 (stereo not shown) [Compound No. 77, hydrochloride]",
    "pKi": 6.04
  },
  {
    "Compound": "O=C1C2CC=CCC2C(=O)N1CC(O)CN1CCN(c2ccccc2OCC(F)(F)F)CC1 (stereo not shown) [Compound No. 31, hydrochloride]",
    "pKi": 7.04
  }
]

I = CC(C)Oc1ccccc1N1CCN(CCCN2C(=O)C3CCC(O)CC3C2=O)CC1 (stereo not shown)
II = CC(C)Oc1ccccc1N1CCN(CC(O)CN2C(=O)CCCC2=O)CC1.Cl (stereo not shown) [Compound No. 29, hydrochloride]
Consider I and II . Which of these has its pKi at a higher number? Identify your selection by its label. I

----------
Counter-ions that a name gives are not always drawn.
Record: Ki reported on α1A adrenoceptor (Rattus norvegicus).
Sequence (P43140 whole entry): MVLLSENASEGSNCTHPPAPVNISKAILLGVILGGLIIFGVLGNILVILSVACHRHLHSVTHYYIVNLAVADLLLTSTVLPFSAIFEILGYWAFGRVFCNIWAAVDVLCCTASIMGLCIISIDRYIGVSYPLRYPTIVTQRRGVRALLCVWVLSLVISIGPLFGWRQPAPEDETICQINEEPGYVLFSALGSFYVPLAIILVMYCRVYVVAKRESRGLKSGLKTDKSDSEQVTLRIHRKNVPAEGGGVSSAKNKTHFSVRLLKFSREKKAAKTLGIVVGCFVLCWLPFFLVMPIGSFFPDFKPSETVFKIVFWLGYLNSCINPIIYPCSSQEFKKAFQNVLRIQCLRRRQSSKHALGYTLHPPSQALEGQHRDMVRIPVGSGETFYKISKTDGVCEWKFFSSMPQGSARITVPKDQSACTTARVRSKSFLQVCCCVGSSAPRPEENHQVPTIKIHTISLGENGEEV
Property Name: Ki (µM)

a = CCOc1ccccc1N1CCN(CC(O)CN2C(=O)C3CC=CCC3C2=O)CC1 (centres unmarked) [Compound No. 11, hydrochloride]
b = COc1ccccc1N1CC[N+]([O-])(CC(O)CN2C(=O)CCCC2=O)CC1 (centres unmarked) [Compound No. 69]
Lab log: flag the item ( a or b ) with the smaller Ki figure. Give the chosen item's label as your response. a

I = CC(C)Oc1cc(N)ccc1N1CCN(CCCN2C(=O)C3CC=CCC3C2=O)CC1.Cl (centres unmarked) [Compound No. 26, hydrochloride]
II = CCOc1ccccc1N1CCN(CCN2C(=O)C3CC=CCC3C2=O)CC1.Cl (centres unmarked) [Compound No. 15, hydrochloride]
Sorting by Ki in descending order, would I or II appear first? Bench note: the answer is the label of the chosen record. II
(II: 0.035 µM, I: 0.00883 µM)

1 = CC(=O)Nc1ccc(N2CCN(CCCN3C(=O)C4CC=CCC4C3=O)CC2)c(OC(C)C)c1.Cl (centres unmarked) [Compound No. 58, hydrochloride]
2 = CC(C)Oc1cccc(O)c1N1CCN(CCCN2C(=O)C3CC=CCC3C2=O)CC1 (centres unmarked) [Compound No. 27, hydrochloride]
Param metric = Ki; output whichever of 1 , 2 has the minimum value. // return label of chosen record 1

1 = Cl.O=C1C2CC=CCC2C(=O)N1CCCN1CCN(c2ccccc2OCC(F)(F)F)CC1 (centres unmarked) [compound 02, hydrochloride]
2 = CC(C)Oc1ccccc1N1CCN(CCCN2C(=O)C3C(c4ccccc4)C=CC(c4ccccc4)C3C2=O)CC1 (centres unmarked) [Compound No. 77, hydrochloride]
3 = CC(C)Oc1ccccc1N(CCO)CCNCCCN1C(=O)C2CC=CCC2C1=O (centres unmarked) [Compound No. 68, hydrochloride]
4 = Cl.O=C1C2CC=CCC2C(=O)N1CC(O)CN1CCN(c2ccccc2O)CC1 (centres unmarked) [Compound No. 14, hydrochloride]
5 = Cl.O=C1CCCC(=O)N1CCCN1CCN(c2ccccc2O)CC1 [compound 01, hydrochloride]
Exam item: list the entries in increasing order of Ki. Your task in answering is to list the labels in the requested order. 1, 5, 4, 3, 2

I = CC(=O)OC1C=CCC2C(=O)N(CCCN3CCN(c4ccccc4OC(C)C)CC3)C(=O)C12 (centres unmarked) [Compound No. 40, hydrochloride]
II = CC(C)Oc1ccccc1N1CC[N+]([O-])(CCCN2C(=O)C3CC=CCC3C2=O)CC1 (centres unmarked) [compound 08]
Could you please tell me which of these two has the higher Ki: I or II ? Your answer should be the label attached to the chosen record. II
(II: 0.0066 µM, I: 0.00082 µM)

P = CC(C)Oc1ccccc1N1CCN(CC(O)CN2C(=O)C3CC=CCC3C2=O)CC1.Cl (centres unmarked) [compound 07, hydrochloride]
Q = CC(C)Oc1ccccc1NCCN(CC=O)CCCN1C(=O)C2CC=CCC2C1=O (centres unmarked) [Compound No. 50]
R = CC(C)Oc1cc([N+](=O)[O-])ccc1N1CCN(CCCN2C(=O)C3CC=CCC3C2=O)CC1 (centres unmarked) [Compound No. 25, hydrochloride]
S = CCOc1ccc(O)cc1N1CCN(CCCN2C(=O)C3CC=CCC3C2=O)CC1 (centres unmarked) [Compound No. 24, hydrochloride]
T = CC(C)Oc1ccccc1NCCN(CCO)CCCN1C(=O)[C@H]2CC=CC[C@H]2C1=O [Compound No. 48, hydrochloride]
Output the entries ranked by Ki from maximum down to minimum. Enter labels, ranked according to the request. T, Q, S, R, P

P = Cl.O=C1CCCC(=O)N1CC(O)CN1CCN(c2ccccc2OCC(F)(F)F)CC1 (centres unmarked) [Compound No. 39, hydrochloride]
Q = COC1CC2C(=O)N(CCCN3CCN(c4ccccc4OC(C)C)CC3)C(=O)C2CC1OC.Cl (centres unmarked) [Compound No. 76, hydrochloride]
Given the listed records, identify the one among P and Q with higher Ki. Your choice should be expressed through its label. P
(P: 0.0069 µM, Q: 0.0014 µM)

P = CC(=O)N(CCCN1C(=O)C2CC=CCC2C1=O)CCNc1ccccc1OC(C)C.Cl (centres unmarked) [Compound No. 46, hydrochloride]
Q = CC(C)Oc1ccccc1N1CCN(CCCN2C(=O)C3CC4OC4CC3C2=O)CC1 (centres unmarked) [Compound No. 19]
Param metric = Ki; output whichever of P , Q has the minimum value. Write down the label of the entry you select. Q
(Q: 0.00023 µM, P: 0.379 µM)

This collection of values is drawn from patent US20050228180A1.
